Biological target: human p38 kinase alpha (Homo sapiens, UniProt Q16539)
Construct: The coding region of the human p38a cDNA was obtained by PCR-amplification from RNA isolated from the human monocyte cell line THP.1
Sequence (Q16539 whole entry): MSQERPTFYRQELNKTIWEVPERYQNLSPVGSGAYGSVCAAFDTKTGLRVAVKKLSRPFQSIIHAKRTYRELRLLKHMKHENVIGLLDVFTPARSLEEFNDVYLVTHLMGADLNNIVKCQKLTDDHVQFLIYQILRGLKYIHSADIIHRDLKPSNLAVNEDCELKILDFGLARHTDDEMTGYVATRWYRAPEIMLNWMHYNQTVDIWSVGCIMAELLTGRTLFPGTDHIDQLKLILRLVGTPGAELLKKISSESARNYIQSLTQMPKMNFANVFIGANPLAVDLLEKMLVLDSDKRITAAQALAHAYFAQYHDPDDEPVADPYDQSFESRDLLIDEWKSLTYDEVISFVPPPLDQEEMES
Assay: p38 kinase in vitro assay (PHAS-I / 32P-ATP format or EGFRP / 33P-ATP format)
Settings: activated human p38 kinase alpha, 50 μM unlabeled ATP; two assay formats, table does not say which
Counter-ions that a name gives are not always drawn.
OBSERVATION TYPE: IC50 (µM)

INSERT INTO results (molecule, tgt, observation_type, quantitative_readout) VALUES
  ('O=C(O)c1cccc(-c2nnc3ccc(Sc4ccc(F)cc4F)cn23)c1 [Example 64B]', 'human p38 kinase alpha (Homo sapiens, UniProt Q16539)', 'IC50', 7.42),
  ('C=Cc1ccc(-c2nnc3ccc(Sc4ccc(F)cc4F)cn23)c(C)c1 [45 (step 3), hydrochloride]', 'human p38 kinase alpha (Homo sapiens, UniProt Q16539)', 'IC50', 0.106),
  ('CC(C)(C)c1nnc2ccc(OCc3ccc(F)cc3F)cn12', 'human p38 kinase alpha (Homo sapiens, UniProt Q16539)', 'IC50', 19.5),
  ('NC(=O)c1cccc(-c2nnc3ccc(Cc4ccc(F)cc4F)cn23)c1', 'human p38 kinase alpha (Homo sapiens, UniProt Q16539)', 'IC50', 2.98),
  ('C=Cc1ccc(-c2nnc3ccc(Cc4ccc(F)cc4F)cn23)cc1 [62 (step 2)]', 'human p38 kinase alpha (Homo sapiens, UniProt Q16539)', 'IC50', 2.29);

A. CC(C)c1nnc2cc(Cl)c(Sc3ccc(F)cc3F)cn12 [Example 35, hydrochloride]
B. Cc1ccc(C(=O)O)cc1-c1nnc2n1CC(CCc1ccc(F)cc1F)CC2 (racemic)
So which one has the bigger IC50 here, A or B ? Return value: the label identifying the chosen record. B
(B: 7.55 µM, A: 0.889 µM)

1. CC1(C)OCC(CC(C)(C)c2nnc3ccc(Sc4ccc(F)cc4F)cn23)O1 (stereo not drawn) [33 (step 3), hydrochloride]
2. CC(C)c1nnc2ccc(Cc3cccc(F)c3)cn12
3. CC(C)(CC(O)CO)c1nnc2ccc(Sc3ccc(F)cc3F)cn12 (stereo not drawn) [Example 33, hydrochloride]
4. Cc1ccc(C(=O)NCCO)cc1-c1nnc2ccc(Sc3ccc(F)cc3F)cn12
5. NC(=O)c1cccc(-c2nnc3ccc(Sc4ccc(F)cc4F)cn23)c1
# rank_down: sort by IC50, max first Field: ranking. Enter the labels in the order requested. 2, 3, 1, 5, 4

* * *

Target: human p38 kinase alpha (Homo sapiens)
Construct: The coding region of the human p38a cDNA was obtained by PCR-amplification from RNA isolated from the human monocyte cell line THP.1
Experiment: p38 kinase in vitro assay (PHAS-I / 32P-ATP format or EGFRP / 33P-ATP format)
Conditions: activated human p38 kinase alpha, 50 μM unlabeled ATP; two assay formats, table does not say which
pIC50: −log10 of the molar value.
OBSERVATION TYPE: pIC50

Here's what some known entries look like.
INSERT INTO measurements (molecule, quantitative_readout) VALUES
  ('NC(=O)c1ccc(-c2nnc3ccc(Cc4ccc(F)cc4F)cn23)cc1', 5.52),
  ('C=Cc1ccc(-c2nnc3ccc(Sc4ccc(F)cc4F)cn23)cc1', 6.74),
  ('NC(=O)c1ccc(-c2nnc3ccc(Sc4ccc(F)cc4F)cn23)cc1', 6.70);

I. Fc1cccc(F)c1-c1nnc2ccc(Br)cn12
II. COC(=O)c1cccc(-c2nnc3ccc(Sc4ccc(F)cc4F)cn23)c1 [Example 64A]
III. COC(=O)c1ccc(C)c(-c2nnc3ccc(Sc4ccc(F)cc4F)cn23)c1 [41 (step 3)]
IV. CC(C)(C)c1nnc2ccc(Sc3ccc(F)cc3F)cn12
V. COC(=O)c1ccc(C)c(-c2nnc3ccc(CCc4ccc(F)cc4F)cn23)c1
# rank_down: sort by pIC50, max first Field: ranking. Enter the labels in the order requested. IV, III, V, II, I
(IV: 8.32, III: 8.11, V: 7.77, II: 6.74, I: 4.88)
